Listing of recorded IC50 by entry.
# Assay System: MTHFD1 recombinant human enzyme (Homo sapiens, UniProt P11586)
# Sequence (P11586 2-291 limits assumed): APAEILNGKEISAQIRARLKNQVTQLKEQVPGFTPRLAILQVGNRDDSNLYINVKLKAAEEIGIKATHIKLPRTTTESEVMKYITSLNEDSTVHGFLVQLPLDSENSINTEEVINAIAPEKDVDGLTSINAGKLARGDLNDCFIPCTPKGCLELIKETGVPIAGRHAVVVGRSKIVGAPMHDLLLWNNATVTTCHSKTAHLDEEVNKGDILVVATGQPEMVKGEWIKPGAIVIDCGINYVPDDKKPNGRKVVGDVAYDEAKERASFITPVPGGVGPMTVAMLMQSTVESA
# Assay Comment: MTHFD1 inhibition assay (NAD(P)H-Glo luminescence)
# Experimental Context: MTHFD1 IC50, recombinant human enzyme 200 nM, NADP, band

Here are 5 compounds together with their reported answers.
compound="COC[C@H]1CN(c2cc(C)c3c4c(c(=O)oc3c2C)CN(C(=O)c2ccc(C(=O)NS(=O)(=O)N3CCCC3)c(OC(C)C)c2F)CC4)CCN1C [Example 149]" result="10 to 100 nM"
compound="COC[C@H]1CN(c2cc(C)c3c4c(c(=O)oc3c2C)CN(C(=O)c2ccc(C(=O)NS(=O)(=O)N3CCCC3)c(OC3C5CC6CC(C5)CC3C6)c2F)CC4)CCN1C (stereo partly drawn) [Example 94]" result="10 to 100 nM"
compound="COC[C@H]1CN(c2cc(C)c3c4c(c(=O)oc3c2C)CN(C(=O)c2ccc(C(=O)NS(=O)(=O)N3CCCC3)c(N3CCC[C@H]3C)c2)CC4)CCN1C [Example 124]" result="100 to 1000 nM"
compound="COC[C@H]1CN(c2cc(C)c3c4c(c(=O)oc3c2C)CN(C(=O)c2ccc(C(=O)NS(=O)(=O)N3C5CCC3CC5)c(OC)c2F)CC4)CCN1C [Example 157]" result="100 to 1000 nM"
compound="COC[C@H]1CN(c2cc(C)c3c4c(c(=O)oc3c2C)CN(C(=O)c2cc(N(C)C)c(C(=O)NS(=O)(=O)N3CCC[C@H](OC)C3)cc2F)CC4)CCN1C [Example 281]" result="100 to 1000 nM"

Quick one: IC50 of COC[C@H]1CN(c2cc(C)c3c4c(c(=O)oc3c2C)CN(C(=O)c2cc(C)c(C(=O)NS(=O)(=O)N(C)C)c(N3CCCC3)c2)CC4)CCN1C [Example 106] ? 100 to 1000 nM

# lookup: IC50 of COC[C@H]1CN(c2cc(C)c3c4c(c(=O)oc3c2C)CN(C(=O)c2ccc(C(=O)NS(=O)(=O)N(C)C)c(O[C@H]3C[C@@H]5C[C@@H]5C3)c2F)CC4)CCN1C [Example 67] 1 to 10 nM

For the compound COC[C@H]1CN(c2cc(C)c3c4c(c(=O)oc3c2C)CN(C(=O)c2cc(C(=O)NS(=O)(=O)N3CCCC3)c(OC3CCC3)cc2F)CC4)CCN1C [Example 165] , what IC50 is on record? > 5000 nM

# input compound: CCOc1cc(C(=O)N2CCc3c(c(=O)oc4c(C)c(N5CCN(C)[C@@H](COC)C5)cc(Cl)c34)C2)c(F)cc1C(=O)NS(=O)(=O)N1CC2CCC(C1)O2 [Example 301] ; wanted: its IC50 100 to 1000 nM

Look up IC50 for this compound: COC[C@H]1CN(c2cc(Cl)c3c4c(c(=O)oc3c2C)CN(C(=O)c2ccc(C(=O)NS(=O)(=O)N3CC5CC5C3)c(OC)c2)CC4)CCN1C (stereo partly drawn) [Example 280] 100 to 1000 nM

Would you kindly share the measured IC50 for COC[C@H]1CN(c2cc(C)c3c4c(c(=O)oc3c2C)CN(C(=O)c2ccc(C(=O)NS(=O)(=O)C3(C)CC3)c(N3CCC[C@H]3C)c2)CC4)CCN1C [Example 123] ? 100 to 1000 nM

Quick one: IC50 for COC[C@H]1CN(c2cc(C)c3c4c(c(=O)oc3c2C)CN(C(=O)c2ccc(C(=O)NS(=O)(=O)N3CCCC3)c(N(C)C3CCC3)c2)CC4)CCN1C [Example 200] ? 100 to 1000 nM
